Biological target: native Semliki Forest virus (SFV) virion (Semliki Forest virus)
Assay: SPR; Biacore 8K; purified SFV virions amine-coupled on a CM5 chip (more than 2,500 RU); Fc fusions flowed in gradient concentrations at 30 μL/min in PBS with 0.05% Tween-20, pH 7.4, 25°C; 1:1 binding model
metric_name: Kd (µM)
Kindly answer with a numeric value in µM, unit omitted.

Entry VLDLRLBD-Fc (ligand-binding domain of human VLDLR, LA1-8, Fc fusion) (from UniProt P98155-1 31-355) , Kd reported as 0.252
